A set of compounds tested on B-cell lymphoma 6 protein (Homo sapiens, UniProt P41182), with measured pIC50:
// field semantics: pIC50 = negative decimal log of concentration (mol/L)

- MOL_SMILES: "CC(=O)N1C2CCC1CN(c1ncc(Cl)c(Nc3ccc4c(c3)c3c(c(=O)n4C)OCC(F)(F)[C@H](C4CC4)N3)n1)C2"
  TARGET_UNDER_TEST: "B-cell lymphoma 6 protein (Homo sapiens, UniProt P41182)"
  pIC50: 8.72

Please give the documented pIC50 of `CC(=O)N1CC2CCC(C1)N2c1ncc(Cl)c(Nc2ccc3c(c2)c2c(c(=O)n3C)OCC(F)(F)[C@H](C3CC3)N2)n1`
9.05
